Tested on: HOP-62 NSCLC
test: NCI-60 one-dose screen, 48 h
conditions_used: 10 µM unless noted
This is part of a sample that, as a whole, favours compounds with a hit. Of some 83,000 tested, about 20% had one in any assay. The source made the active and inactive calls. Rule for the calls: active = growth percent below 10; inactive = the rest.
Outcome field: choose from y = active, n = inactive

CNC(C)[C@H]1CCC2C3CC=C4C(=O)[C@@H](NC(=O)C=C(C)C)CC[C@]4(C)C3CC[C@@]21C (some centres not stated) : y
CCOC(=O)c1nn(CC(O)c2ccccc2)c(NC(=O)Nc2cccc(F)c2)c1C (configuration not stated) : n
C#CCn1cnc2cnc(Nc3cccc(NC(=O)C=C)c3)nc21 : n
CCOC(=O)c1ccccc1-c1c2ccc(=[N+](C)C)cc-2oc2cc(N(C)C)ccc12 : y

Name the outcome recorded for Cc1ccc(C=C2C(=O)NC(=O)NC2=O)cc1 in the assay.
n

What call does the record list for COc1cc(/C=C/C(=O)/C=C(O)/C=C/c2ccc(OC(=O)C34CC5CC(CC(C5)C3)C4)c(OC)c2)ccc1OC(=O)C12CC3CC(CC(C3)C1)C2 ?
n

Entry CC(C)CCN(CCC(C)C)CC(O)c1cc2c(c3ccccc13)CCCC2 (configuration not stated) : call = ?
n

Entry CC1C(/C=N/NC(N)=S)C(C#N)(C#N)C1(C#N)C#N (configuration not stated) : call = ?
n

What was the test verdict on CCOC(=O)C(Cc1ccc(OC)cc1)C(=O)OCC ?
n

What did this assay record as the result for Cc1ccc(/C=C/C(=O)c2cccc(OCCCOc3cccc(C(=O)/C=C/c4ccc(C)cc4)c3)c2)cc1 ?
n

Look up the recorded call for C=C(C)[C@@H]1CC[C@]2(C(N)=O)CC[C@]3(C)[C@H](CC[C@@H]4[C@@]5(C)CC[C@H](OCCC#N)C(C)(C)[C@@H]5CC[C@]43C)[C@@H]12 in this test.
n

Please indicate how the test categorized CCN(CC)CCN1C(=O)c2cccc3c(/C=C/CN4C(=O)c5cccc6cccc(c56)C4=O)ccc(c23)C1=O .
n

Any idea what this test logged for COc1cccc(NCc2nnc(Nc3ccc(Cl)cc3)c3ccccc23)c1 ?
y

Kindly provide the recorded test outcome for the following compound: COc1cccc(/C=C/C(=O)c2cccc(Nc3nc(Nc4ccccc4)nc(Nc4ccccc4)n3)c2)c1
n

Record request — test call for CC(C)(C)n1cc(-c2ccnc(NCCCNS(=O)(=O)c3ccc(C(F)(F)F)cc3)c2)c(-c2cccc(F)c2)n1
n

Could you check what this test reported for C[C@@H]1O[C@@H](O[C@@H]2C[C@H](c3ccc4c(c3O)C(=O)C3=C(C4=O)[C@@]4(O)C(=O)C[C@](C)(O)C[C@@]4(O)C=C3)O[C@H](C)[C@H]2O)CC[C@@H]1O[C@H]1C[C@@H](O)[C@H](O)[C@@H](C)O1 ?
n

---

// growth lookup, one value per entry
Tested on: RPMI-8226 leukemia
test: NCI-60 one-dose screen, 48 h (100 = growth as untreated, 0 = no growth, -100 = all killed)
conditions_used: 10 µM unless noted
The panel holds about 83,000 compounds, 20% with a hit somewhere; the sample as a whole holds those more often.
// return numeric value only (unit: %, not printed)

CCOC(=O)c1ccccc1-c1c2ccc(=[N+](C)C)cc-2oc2cc(N(C)C)ccc12 : 13.8

Field: next compound
Record COC(=O)CCC/C=C\C[C@H]1C=CC(=O)/C1=C/C[C@@H](O)C/C=C\CC(F)(F)F . Reported growth: -11.8
